- Tested on: TRPC4 (mouse), co-expressed with 5HT1a in HEK293
- ASSAY SUMMARY: enhancement of serotonin-evoked TRPC4 response – cell-based, second counter screen, HEK293 TRPC4/5HT1a, Fluo-4, counter-screen for TRPC4 potentiator project, confirmation (AID 434979)
- CONDITIONS USED: Fluo-4 calcium flux, at 10 µM, serotonin added at its EC20 dose
The source made the active and inactive calls.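 How the source made its calls: active means signal rise over 3 SD above mean of control wells given weak agonist, in both repeats and first screen; inactive means the rest.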
The reply should be one of these categories: active, inactive

In this assay, the call recorded for `Cc1ccc(S(=O)(=O)NC(=O)N2CCN(Cc3c(F)cccc3Cl)CC2)cc1` was what?
active

* * *

- Tested on: TRPC4 (transient receptor potential cation channel C4 beta), mouse
- ASSAY SUMMARY: potentiation of DAMGO EC20 TRPC4 response – cell-based, second round, Fluo-4, HEK293 TRPC4beta/mu-opioid, 1 µM, confirmation (AID 2554)
- CONDITIONS USED: DAMGO EC20, Fluo-4 calcium flux, at 1 µM
Calls of active or inactive are those of the source.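 The calls were made as follows: active = primary screen hit whose fluorescence ratio, in both repeats, exceeds the weak agonist control mean by 3 SD; inactive = the rest.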
The reply should be one of these categories: active, inactive

COMPOUND	LABEL VALUE
O=C(CCN1CCN(Cc2ccccc2)CC1)Nc1cccc(Br)c1	active
CC(C)(C)[C@H]1C=C(C(=O)NCc2ccccc2)O[C@@H](OCc2ccc(CO)cc2)C1	inactive
O=C(Nc1ccccc1N1CCN(C(=O)c2ccc(Cl)cc2)CC1)c1cccc([N+](=O)[O-])c1	inactive
O=C(CSc1nnc(-c2ccccc2)o1)c1ccc2c(c1)OCCO2	inactive

In this assay, the call recorded for `OC(c1ccccc1)(c1ccccc1)C1CCN(C(=S)NC2CCCC2)CC1` was what?
inactive

Then O=C1NC(c2ccccc2)=C(c2nc3ccccc3s2)C(c2ccccc2)N1 (configuration not stated) ?
inactive

Then OCC1(Cc2ccccc2)CCCN(Cc2cnn(-c3ccccc3)c2)C1 (configuration not stated) ?
inactive

Then CN(C)C(CNC(=S)Nc1ccc(Cl)cc1)c1cccnc1 (configuration not stated) ?
inactive
